tested on: Aspergillus niger; assay: Antifungal activity against Aspergillus niger assessed as reduction in fungal cell growth incubated for 72 hrs by broth microdilution method; assay type: functional
observation.type: MIC

State the recorded MIC for this entry: OC(Cn1cncn1)(Cn1nnnc1CCN1CCN(c2ccc(F)cc2)CC1)c1ccc(F)cc1F (stereo not drawn)
0.5 to 16 µg/mL

State the recorded MIC for this entry: CC(n1nnnc1CCN1CCN(c2ccc(Cl)cc2)CC1)C(O)(Cn1cncn1)c1ccc(F)cc1F (stereo not drawn)
0.5 to 16 µg/mL

State the recorded MIC for this entry: C[C@H](n1nnc(CCN2CCN(C(c3ccccc3)c3ccccc3)CC2)n1)[C@](O)(Cn1cncn1)c1ccc(F)cc1F
0.25 to 16 µg/mL

State the recorded MIC for this entry: OC(Cn1cncn1)(Cn1nnc(CCN2CCN(c3c(Cl)cccc3Cl)CC2)n1)c1ccc(F)cc1F (stereo not drawn)
1 to 16 µg/mL

State the recorded MIC for this entry: CC(n1nnnc1CCN1CCN(C(c2ccccc2)c2ccccc2)CC1)C(O)(Cn1cncn1)c1ccc(F)cc1F (stereo not drawn)
0.5 to 16 µg/mL

State the recorded MIC for this entry: C[C@H](n1nnnc1CCN1CCN(c2ccccc2Cl)CC1)[C@](O)(Cn1cncn1)c1ccc(F)cc1F
0.12 to 16 µg/mL

State the recorded MIC for this entry: CCCCOc1ccccc1N1CCN(CCc2nnn([C@@H](C)[C@](O)(Cn3cncn3)c3ccc(F)cc3F)n2)CC1
0.25 to 16 µg/mL

State the recorded MIC for this entry: OC(Cn1cncn1)(Cn1nnc(CCN2CCN(C(c3ccccc3)c3ccccc3)CC2)n1)c1ccc(F)cc1F (stereo not drawn)
1 to 16 µg/mL
